Some molecules, each annotated with its measured IC50.
# Target Or System: 80S Ribosome
# Protocol Details: Binding affinity to 80S ribosome in human HeLa cells lysates using human full length PCSK9 encoding mRNAs assessed as inhibition of PCSK9 mRNA translation after 45 mins by Steady-Glo luciferase reporter gene assay
# Assay type: cell-free
Assay Endpoint: IC50 (µM)

In [3]: df
Out[3]:
                              line_notation  assay_endpoint  result_units  reported_value
0  Cc1cccnc1N(C(=O)N1CCC(c2ccccc2F)CC1)[C@@H]1CCCNC1            IC50            µM            4.38
1  Cc1cccnc1N(C(=O)N1CCC(c2ccccc2)CC1)[C@@H]1CCCNC1            IC50            µM            2.33
2  O=C(N1CCC(c2ccccc2)CC1)N(c1ncccc1Cl)[C@@H]1CCCNC1            IC50            µM            2.08
3  Cc1cccnc1N(C(=O)N1CCC(c2cnn3cccnc23)CC1)[C@@H]1CCCNC1            IC50            µM            0.92
4  Cc1cnc2c(c1)nnn2-c1ccc(CCC(=O)N(c2ncccc2Cl)[C@@H]2CCCNC2)nc1            IC50            µM            2.27
5  Cn1ccc2ccnc(N(C(=O)N3CCC(c4ccccc4)CC3)[C@@H]3CCCNC3)c21            IC50            µM             0.5
6  COc1ccc(CCC(=O)N(c2nccc3ccccc23)[C@@H]2CCCNC2)cc1            IC50            µM            8.04
7  O=C(N1CCC(c2ccccc2)CC1)N(c1nccc2ccccc12)[C@@H]1CCCNC1            IC50            µM            1.54
8  Cc1nccnc1N(C(=O)N1CCC(c2ccccc2)CC1)[C@@H]1CCCNC1            IC50            µM            3.63
